# TEST PROTOCOL: Lipophilicity index (substitution method)
# Assay type: physicochemical
# SETTINGS: octanol/water
ENDPOINT LABEL: Index

Past entries and their recorded results:
COMPOUND STRUCTURE STRING	ENDPOINT LABEL	VALUE
CNc1ccc(Nc2c3ccccc3nc3ccccc23)cc1	Index	-0.47
CCN(C)c1ccc(Nc2c3ccccc3nc3ccccc23)cc1OC	Index	0.66
CCCCCCN(CCCCCC)c1ccc(Nc2c3ccccc3nc3ccccc23)cc1	Index	6.2
COc1cc(NS(C)(=O)=O)ccc1Nc1c2ccc(N)cc2nc2cc(N)ccc12	Index	-3.66
c1ccc2c(Nc3ccc(NC4CCCCC4)cc3)c3ccccc3nc2c1	Index	2
COc1cc(NS(C)(=O)=O)ccc1Nc1c2ccccc2nc2ccccc12	Index	-1.2
CCCCCCOc1ccc(Nc2c3ccccc3nc3ccccc23)cc1	Index	2.87
CN(C)Cc1ccc(Nc2c3ccc(N)cc3nc3cc(N)ccc23)cc1	Index	-2.61
Nc1ccc(Nc2c3ccccc3nc3ccccc23)cc1	Index	-1.23
CCCCCCN(C)c1ccc(Nc2c3ccc(Cl)cc3nc3ccc(OC)cc23)cc1	Index	3.73

P: CCCCCCN(C)c1ccc(Nc2c3ccccc3nc3ccccc23)cc1OC
Q: NS(=O)(=O)c1ccc(Nc2c3ccccc3nc3ccccc23)cc1
Query: Looking at recorded values for Index, does P or Q come in lower? Indicate your choice by writing its label.
Reply: Q
(Q: -1.82, P: 3.02)

A: CN(C)c1ccc2c(Nc3ccccc3)c3ccc(N(C)C)cc3nc2c1
B: Nc1ccc(Nc2c3ccccc3nc3ccccc23)cn1
Query: Quick check, higher Index between A and B ? Indicate your choice by writing its label.
Reply: A
